Can you tell me Kd for the items I'm about to list?
Tested system: T1, EsCas13d, nuclease-dead (Eubacterium siraeum, UniProt B0MS50, R295A;H300A;R849A;H854A)
T1 sequence: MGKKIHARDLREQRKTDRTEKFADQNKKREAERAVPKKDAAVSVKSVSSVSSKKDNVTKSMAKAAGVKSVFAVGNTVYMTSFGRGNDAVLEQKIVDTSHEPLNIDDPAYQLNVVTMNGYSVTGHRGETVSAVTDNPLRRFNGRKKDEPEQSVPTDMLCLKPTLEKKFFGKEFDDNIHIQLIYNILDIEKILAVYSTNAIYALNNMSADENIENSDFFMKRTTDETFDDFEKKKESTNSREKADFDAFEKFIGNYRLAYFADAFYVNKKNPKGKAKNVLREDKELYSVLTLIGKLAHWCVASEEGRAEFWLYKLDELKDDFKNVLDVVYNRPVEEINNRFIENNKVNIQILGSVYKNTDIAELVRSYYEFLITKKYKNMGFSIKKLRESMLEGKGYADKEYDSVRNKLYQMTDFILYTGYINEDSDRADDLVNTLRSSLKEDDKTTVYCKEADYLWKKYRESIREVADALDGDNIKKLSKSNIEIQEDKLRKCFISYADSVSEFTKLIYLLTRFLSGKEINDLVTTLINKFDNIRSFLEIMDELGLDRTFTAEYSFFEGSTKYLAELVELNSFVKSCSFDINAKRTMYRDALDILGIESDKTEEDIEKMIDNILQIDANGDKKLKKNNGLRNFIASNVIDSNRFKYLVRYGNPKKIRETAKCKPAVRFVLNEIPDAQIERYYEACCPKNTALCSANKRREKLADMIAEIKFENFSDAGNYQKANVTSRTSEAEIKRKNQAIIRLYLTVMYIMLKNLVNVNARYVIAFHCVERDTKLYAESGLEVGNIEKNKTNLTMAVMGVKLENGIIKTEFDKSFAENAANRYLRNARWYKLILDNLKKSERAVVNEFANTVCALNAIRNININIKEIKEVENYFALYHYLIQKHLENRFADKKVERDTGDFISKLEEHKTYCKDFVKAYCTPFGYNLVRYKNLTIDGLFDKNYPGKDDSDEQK
Procedure details: crRNA (strand 1, pre-loaded); Mg2+; 40 mM Tris-HCl pH 7.5, 150 mM NaCl, 6 mM MgCl2, 1 mM DTT, 0.1% Tween-20, 0.2 mg/ml BSA; 25 C; 10 min per concentration, then washed
Study conditions: tags: His6-TwinStrep-SUMO cleaved; N-terminal SNAP kept (SNAP-Surface 488); label: 3' end held by stalled T7 RNA polymerase
// units = nM; emit number, no label

Reported Kd for target 2 MT 5'PFS AGC 3'PFS CGG (mixed) RNA 1: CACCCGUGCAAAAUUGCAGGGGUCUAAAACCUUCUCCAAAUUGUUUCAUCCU RNA 2: GGGAAUGGAUCCACAUCUACGAAUUCAGCAGGAUGAAACAAUUUGGAGAAGCGGAGAUCGGAAGAGCACACGU : what is it?
5.8

Please answer likewise for target 1 insG 3' of 16,insA 3' of 13 (mixed) RNA 1: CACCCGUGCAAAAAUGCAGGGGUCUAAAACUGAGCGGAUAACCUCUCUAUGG RNA 2: GGGAAUGGAUCCACAUCUACGAAUUCGUACCAUAGAGGAGAGUUAUCCGCUCACCGAGAUCGGAAGAGCACACGU
16.1

Please answer likewise for target 1 insC 3' of 16,insC 3' of 16 (mixed) RNA 1: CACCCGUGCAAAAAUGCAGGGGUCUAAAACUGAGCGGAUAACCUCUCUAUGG RNA 2: GGGAAUGGAUCCACAUCUACGAAUUCGUACCAUAGACCGAGGUUAUCCGCUCACCGAGAUCGGAAGAGCACACGU
72

Please give the result for target 1 C6A,A18U (mixed) RNA 1: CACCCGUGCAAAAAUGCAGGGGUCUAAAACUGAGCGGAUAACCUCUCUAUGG RNA 2: GGGAAUGGAUCCACAUCUACGAAUUCGUACCAUUGAGAGGUUAUCAGCUCACCGAGAUCGGAAGAGCACACGU too.
26.7

Consider next the binder target 1 A1G,C2U (mixed) RNA 1: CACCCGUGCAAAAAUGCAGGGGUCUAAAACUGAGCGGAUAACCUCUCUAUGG RNA 2: GGGAAUGGAUCCACAUCUACGAAUUCGUACCAUAGAGAGGUUAUCCGCUUGCCGAGAUCGGAAGAGCACACGU in the same way.
8.7

Then what about the binder target 3 insC 3' of 22,insU 3' of 4 (mixed) RNA 1: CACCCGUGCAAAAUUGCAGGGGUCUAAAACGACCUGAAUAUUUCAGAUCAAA RNA 2: GGGAAUGGAUCCACAUCUACGAAUUCGUUUCUUGAUCUGAAAUAUUCAGUGUCUGCAGAUCGGAAGAGCACACGU ?
8.75

Next entry: target 1 A9G,U19G (mixed) RNA 1: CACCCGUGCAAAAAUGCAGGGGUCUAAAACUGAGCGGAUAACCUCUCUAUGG RNA 2: GGGAAUGGAUCCACAUCUACGAAUUCGUACCAGAGAGAGGUUGUCCGCUCACCGAGAUCGGAAGAGCACACGU
49

Okay, and target 3 insA 3' of 8,insA 3' of 3 (mixed) RNA 1: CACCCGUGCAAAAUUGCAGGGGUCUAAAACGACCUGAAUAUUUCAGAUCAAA RNA 2: GGGAAUGGAUCCACAUCUACGAAUUCGUUUUUGAUCUGAAAUAUAUCAGGAUCUGCAGAUCGGAAGAGCACACGU ?
73

Note, next up: target 1 MT 5'PFS CCU 3'PFS CAA (mixed) RNA 1: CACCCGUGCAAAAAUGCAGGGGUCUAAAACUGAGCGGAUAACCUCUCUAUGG RNA 2: GGGAAUGGAUCCACAUCUACGAAUUCCCUCCAUAGAGAGGUUAUCCGCUCACAAAGAUCGGAAGAGCACACGU
55

// same read-out, input: target 1 C4G,A9U (mixed) RNA 1: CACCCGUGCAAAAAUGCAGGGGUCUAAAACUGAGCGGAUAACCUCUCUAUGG RNA 2: GGGAAUGGAUCCACAUCUACGAAUUCGUACCAUAGAGAGGUUUUCCGGUCACCGAGAUCGGAAGAGCACACGU
3.93

Now try target 1 MT 5'PFS AUG 3'PFS UGA (mixed) RNA 1: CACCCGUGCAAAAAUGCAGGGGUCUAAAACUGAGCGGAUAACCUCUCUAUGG RNA 2: GGGAAUGGAUCCACAUCUACGAAUUCAUGCCAUAGAGAGGUUAUCCGCUCAUGAAGAUCGGAAGAGCACACGU .
52

Can you check target 1 G5C,C7A (mixed) RNA 1: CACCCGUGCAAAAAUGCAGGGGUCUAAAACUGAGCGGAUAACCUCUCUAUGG RNA 2: GGGAAUGGAUCCACAUCUACGAAUUCGUACCAUAGAGAGGUUAUACCCUCACCGAGAUCGGAAGAGCACACGU next?
21.2

Param item: target 2 MT 5'PFS GAC 3'PFS AUU (mixed) RNA 1: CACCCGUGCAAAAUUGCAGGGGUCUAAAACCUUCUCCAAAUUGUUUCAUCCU RNA 2: GGGAAUGGAUCCACAUCUACGAAUUCGACAGGAUGAAACAAUUUGGAGAAGAUUAGAUCGGAAGAGCACACGU
12.1

And what about the binder target 2 MT 5'PFS AGU 3'PFS UCU (mixed) RNA 1: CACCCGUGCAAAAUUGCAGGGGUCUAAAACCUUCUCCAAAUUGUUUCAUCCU RNA 2: GGGAAUGGAUCCACAUCUACGAAUUCAGUAGGAUGAAACAAUUUGGAGAAGUCUAGAUCGGAAGAGCACACGU ?
21.3

Now give it for target 2 MT 5'PFS UAU 3'PFS CAC (mixed) RNA 1: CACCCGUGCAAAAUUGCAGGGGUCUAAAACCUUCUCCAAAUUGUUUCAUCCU RNA 2: GGGAAUGGAUCCACAUCUACGAAUUCUAUAGGAUGAAACAAUUUGGAGAAGCACAGAUCGGAAGAGCACACGU too.
47
